Target: hGIPR (Homo sapiens, UniProt P48546)
Construct: expressed in transfected cells; host or cells: CHO cells carrying a CRE-luciferase reporter gene
Sequence (P48546 22-466): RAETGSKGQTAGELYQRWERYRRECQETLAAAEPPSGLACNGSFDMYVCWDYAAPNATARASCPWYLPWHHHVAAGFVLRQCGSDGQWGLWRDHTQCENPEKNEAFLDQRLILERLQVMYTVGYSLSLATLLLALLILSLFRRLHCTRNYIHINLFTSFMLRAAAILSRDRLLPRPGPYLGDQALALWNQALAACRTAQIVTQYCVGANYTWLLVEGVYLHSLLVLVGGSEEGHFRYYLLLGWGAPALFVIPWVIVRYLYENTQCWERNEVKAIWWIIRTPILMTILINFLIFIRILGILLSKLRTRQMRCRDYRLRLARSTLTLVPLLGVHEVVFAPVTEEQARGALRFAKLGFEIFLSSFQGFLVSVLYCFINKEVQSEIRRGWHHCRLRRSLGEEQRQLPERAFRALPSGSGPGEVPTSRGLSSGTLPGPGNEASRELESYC
Assay: hGIPR CreLuc reporter gene assay in 0.5% and 100% plasma
Type: cell-based
Conditions: CreLuc reporter gene assay, 100% human plasma; read-out: hGIPR 100% hP
Starred links: 1 amine or outer side, 2 acyl side, 3 side chain; linkers in the order of their positions; H or OH if unused. Non-standard residues stand in square brackets, D forms with d. Groups on a side chain read outwards from the residue. No end group written: not given here. *: point of attachment. C20 diacid = O=C(O)CCCCCCCCCCCCCCCCCCC(=O)*; C18 diacid = O=C(O)CCCCCCCCCCCCCCCCC(=O)*; γGlu = O=C(O)[C@H](CCC(=O)[*:2])N[*:1]; εLys = N[C@@H](CCCCN[*:1])C(=O)[*:2]; AEEA = NCCOCCOCC(=O)O; Aib = CC(C)(N)C(=O)O
# pEC50 per entry
Answer as the number alone; pEC50 is minus log10 of concentration in mol/L.

Answered examples (3):
substance	pEC50
H-Y[Aib]EGTFTSDYSI[Aib]LEKQAQ[Aib]AFVQWLIK([γGlu-γGlu-γGlu-γGlu-C18 diacid])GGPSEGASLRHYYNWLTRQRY-NH2 [Compound 268]	9.00
H-Y[Aib]EGTFTSDYSI[Aib]LEKQAQ[Aib]AFVEWLIK([εLys-γGlu-γGlu-γGlu-γGlu-γGlu-γGlu-C20 diacid])GGPSEPQSIRHYYNWLTRQRY-NH2 [Compound 48]	9.17
H-Y[Aib]EGTFTSDYSI[Aib]LEKQAQ[Aib]EFVQWLIK([γGlu-γGlu-γGlu-γGlu-C18 diacid])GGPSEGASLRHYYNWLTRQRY-NH2 [Compound 202]	8.74

Exam item: // lookup pEC50 | system=hGIPR (Homo sapiens, UniProt P48546) | key= Y[Aib]EGTFTSDYSI[Aib]LEKQAQ[Aib]AFVEWLIK([AEEA-AEEA-γGlu-γGlu-γGlu-C18 diacid])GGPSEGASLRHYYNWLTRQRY-NH2 [Compound 299]
Marked response: 9.15

Exam item: // lookup pEC50 | system=hGIPR (Homo sapiens, UniProt P48546) | key= H-Y[Aib]EGTFTSDYSI[Aib]LEKQAQ[Aib]AFVEWLIK([Glu-Glu-Glu-Glu-C18 diacid])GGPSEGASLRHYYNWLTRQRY-NH2 [Compound 291]
Marked response: 9.15
